- Target of assay: TrkA kinase (Homo sapiens (Human), UniProt P04629)
- Sequence (P04629 33-796): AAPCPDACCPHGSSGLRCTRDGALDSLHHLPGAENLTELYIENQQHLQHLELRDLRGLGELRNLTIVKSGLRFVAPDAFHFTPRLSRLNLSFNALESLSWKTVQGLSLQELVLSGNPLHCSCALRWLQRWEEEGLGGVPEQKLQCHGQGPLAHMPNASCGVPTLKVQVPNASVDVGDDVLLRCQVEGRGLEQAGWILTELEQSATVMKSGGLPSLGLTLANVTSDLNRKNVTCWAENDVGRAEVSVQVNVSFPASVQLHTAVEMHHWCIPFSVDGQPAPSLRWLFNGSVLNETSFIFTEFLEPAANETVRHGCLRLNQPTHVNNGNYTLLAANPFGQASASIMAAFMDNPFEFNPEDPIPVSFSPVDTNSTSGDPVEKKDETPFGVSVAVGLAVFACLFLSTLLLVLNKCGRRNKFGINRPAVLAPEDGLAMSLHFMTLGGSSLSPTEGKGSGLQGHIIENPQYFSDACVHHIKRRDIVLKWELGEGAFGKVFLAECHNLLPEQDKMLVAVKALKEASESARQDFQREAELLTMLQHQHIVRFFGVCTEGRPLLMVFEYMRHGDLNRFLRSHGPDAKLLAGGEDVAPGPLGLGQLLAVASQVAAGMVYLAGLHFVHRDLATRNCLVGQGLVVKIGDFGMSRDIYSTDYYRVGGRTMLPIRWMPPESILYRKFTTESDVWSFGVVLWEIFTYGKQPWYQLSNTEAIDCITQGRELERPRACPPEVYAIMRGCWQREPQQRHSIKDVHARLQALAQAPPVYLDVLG
- Assay text: HTRF assay for inhibitory activity (IC50) against NTRK kinase, TrkA
- Type: biochemical
- Particulars: Table 1, ATP 40 μM, kinase 0.5 nM
What IC50 was measured for each of the following?

# input Which measured IC50 value corresponds to Nc1nn2ccc(N3C[C@@H](F)C[C@@H]3c3cc(F)ccc3F)nc2c1C(=O)NC1(CO)CC1 [Example 52] ?
# output < 1 nM

# input compound: CN(C)CCNC(=O)c1c(N)nn2ccc(N3CCC[C@@H]3c3cc(F)ccc3F)nc12 [Example 19] ; wanted: its IC50
# output < 1 nM

# input So what's the measured IC50 for this one? NC(=O)c1c(N)nn2ccc(N3CCC[C@@H]3c3cc(F)ccc3F)nc12 [Example 4]
# output < 1 nM

# input compound: CCOC(=O)c1c(NC(=O)NC)nn2ccc(N3CCCC3c3cc(F)ccc3F)nc12 (stereo not shown) [Example 7] ; wanted: its IC50
# output < 100 nM

Value source: patent US10829492B2
